Entries below carry reported IC50 on ROCK2 (Homo sapiens (Human)).
Sequence (O75116 whole entry): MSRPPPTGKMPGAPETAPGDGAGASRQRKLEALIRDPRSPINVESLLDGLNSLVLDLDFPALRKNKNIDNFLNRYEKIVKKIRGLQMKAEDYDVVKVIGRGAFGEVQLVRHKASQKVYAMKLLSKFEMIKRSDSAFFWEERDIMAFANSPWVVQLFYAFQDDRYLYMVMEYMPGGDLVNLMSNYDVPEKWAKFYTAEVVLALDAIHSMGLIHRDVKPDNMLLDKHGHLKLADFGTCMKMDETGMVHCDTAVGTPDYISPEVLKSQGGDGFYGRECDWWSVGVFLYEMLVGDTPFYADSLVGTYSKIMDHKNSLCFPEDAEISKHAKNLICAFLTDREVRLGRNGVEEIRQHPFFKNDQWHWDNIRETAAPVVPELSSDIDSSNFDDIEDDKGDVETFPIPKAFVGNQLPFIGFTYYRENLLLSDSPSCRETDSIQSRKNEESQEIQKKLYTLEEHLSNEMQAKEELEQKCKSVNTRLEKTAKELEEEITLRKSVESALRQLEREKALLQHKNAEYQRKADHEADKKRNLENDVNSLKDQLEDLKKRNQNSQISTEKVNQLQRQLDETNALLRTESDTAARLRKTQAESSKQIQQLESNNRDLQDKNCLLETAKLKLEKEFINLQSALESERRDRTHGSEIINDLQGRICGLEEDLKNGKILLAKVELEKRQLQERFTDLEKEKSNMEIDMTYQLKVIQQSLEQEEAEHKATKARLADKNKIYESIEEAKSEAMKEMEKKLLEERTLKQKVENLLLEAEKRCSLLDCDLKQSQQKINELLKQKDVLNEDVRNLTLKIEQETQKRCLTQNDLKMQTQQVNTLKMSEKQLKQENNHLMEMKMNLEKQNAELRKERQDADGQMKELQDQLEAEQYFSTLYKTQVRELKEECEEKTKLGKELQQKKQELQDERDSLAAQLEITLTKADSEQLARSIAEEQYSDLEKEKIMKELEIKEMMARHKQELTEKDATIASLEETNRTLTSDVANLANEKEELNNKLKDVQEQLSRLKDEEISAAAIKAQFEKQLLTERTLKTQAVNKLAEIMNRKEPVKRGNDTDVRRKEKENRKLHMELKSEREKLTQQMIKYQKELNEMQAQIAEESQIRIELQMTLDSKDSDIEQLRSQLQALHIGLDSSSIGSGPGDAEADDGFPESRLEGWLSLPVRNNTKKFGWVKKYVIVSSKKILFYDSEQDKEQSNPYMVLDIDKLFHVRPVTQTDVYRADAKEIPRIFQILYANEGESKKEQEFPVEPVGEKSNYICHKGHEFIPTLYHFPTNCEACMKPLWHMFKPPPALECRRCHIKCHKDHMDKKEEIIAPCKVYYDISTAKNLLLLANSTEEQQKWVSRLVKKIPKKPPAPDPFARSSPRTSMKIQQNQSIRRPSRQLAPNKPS
The response must be a number in nM with no trailing unit.

Please review the entries below; each comes with its answer.
1. COc1cccc(CN(CCN(C)C)C(=O)c2cc3ccc(-c4cn[nH]c4)nc3s2)c1 [Compound 59] :: 20
2. COc1cccc([C@@H](CO)NC(=O)c2cc3ccc(-c4cn[nH]c4)nc3s2)c1 [Compound 61] :: 7.1
3. O=C(N[C@H](CO)c1cccc(F)c1)c1cc(-c2ccncc2)[nH]n1 [Compound 1] :: 27.6
4. C[C@@H](NC(=O)c1cc(-c2ccncc2)n[nH]1)c1cccc(F)c1 [Compound 64] :: 29.2

Switching to the query record.
q: Respond only with IC50 recorded for COc1cccc([C@@H](C)NC(=O)c2cc3ccc(-c4cn[nH]c4)nc3s2)c1 [Compound 58]
a: 4.5

----------
System: MV411 cells
experimental-protocol: Cell viability assay (CellTiter-Blue), MV411
Type: cell-based
test-settings: Homo sapiens, MV4-11; MV411 (ITD-FLT3+), 72 hours treatment
value-type: IC50 (µM)
The response must be a number in µM with no trailing unit.

1) COc1cccc([C@@H](CO)NC(=O)c2cc3ccc(-c4cn[nH]c4)nc3s2)c1 :: 8.2
2) CC(C)NC(=O)c1cccc(CNC(=O)c2cc3ccc(-c4cn[nH]c4)nc3s2)c1 :: 12.9
3) COc1cccc(CNC(=O)c2cc3ccc(-c4ccncc4)nc3s2)c1 :: 7.1

q: Respond only with IC50 recorded for "COc1cccc([C@@H](C)NC(=O)c2cc3ccc(-c4cn[nH]c4)nc3s2)c1"
a: 1.6

q: Respond only with IC50 recorded for "COc1cccc(CNC(=O)c2cc3ccc(-c4cn[nH]c4)nc3s2)c1"
a: 14.8

q: Respond only with IC50 recorded for "COc1cccc(CN(CCN(C)C)C(=O)c2cc3ccc(-c4cn[nH]c4)nc3s2)c1"
a: 4.5
